# Tested on: MOLT-4 leukemia
# assay_name: NCI-60 one-dose screen, 48 h
# test_parameters: 10 µM unless noted
The panel holds about 83,000 compounds, 20% with a hit somewhere; the sample as a whole holds those more often. The source made the active and inactive calls. The calls were made as follows: active = growth percent below 10; inactive = the rest.
Form entry, call: pick from yes (1) (active), no (0) (inactive)

Query: # lookup: test call for `CC(C)Cn1cnc2c(NCn3nc(-c4cc(Cl)cc(Cl)c4Cl)n(/N=C/c4ccc(Cl)cc4)c3=S)nc3ccccc3c21`
Response: no (0)

Query: Now give it for CN[C@@H]1C(OC2[C@H](O[C@H]3[C@H](O)[C@@H](O)[C@H](N=C(N)N)[C@@H](O)[C@@H]3N=C(N)N)OC(C)[C@]2(O)CO)OC(CO)C(O)C1O (some centres not stated) too.
Response: no (0)

Query: Now give it for `O=C1C(=O)c2c(nc3ccc(Cl)cn23)-c2ccccc21` too.
Response: yes (1)

Query: Now give it for `COc1cc2c(cc1OC)C(=O)/C(=C/c1cccc(OCC(=O)c3ccccc3)c1)C2` too.
Response: no (0)

Query: Now give it for `O=C1c2cccc(NCCN=Cc3ccccc3O)c2C(=O)c2c(NCCN=Cc3ccccc3O)cccc21` too.
Response: no (0)

Query: Now give it for CCOC1Oc2ccccc2C(=O)/C1=N/c1nccs1 (configuration not stated) too.
Response: no (0)

Query: Now give it for `Cc1ccc(-c2cc(-c3ccccc3)n(-c3ccccc3)n2)cc1` too.
Response: no (0)

Query: Now give it for `CCOC(=O)CCN(c1c(Cl)ssc1=O)C(C)C` too.
Response: yes (1)

Query: Now give it for `O=c1[nH]c(SCc2ccccc2)nc2nc(Nc3ccc(NC(=S)Nc4ccccc4)cc3)nc(-c3ccc(O)cc3O)c12` too.
Response: no (0)

Query: Now give it for `Nc1nc(Nc2ccccc2SSc2ccccc2Nc2nc(N)nc(-c3ccc(I)cc3)n2)nc(-c2ccc(I)cc2)n1` too.
Response: no (0)

Query: Now give it for `CCCCCN(CCCCC)CCCNc1c2c(nc3ccc(Cl)cc13)CCCC2` too.
Response: no (0)

Query: Now give it for `CCOC(=O)Nc1cc(-c2ccc(C)c(NS(C)(=O)=O)c2)nn2c(C)nnc12` too.
Response: no (0)

Query: Now give it for COc1cc2c(cc1OC)C(CC1(O)CCCCC1)N(S(=O)(=O)c1ccc(C)cc1)CC2 (configuration not stated) too.
Response: yes (1)

Query: Now give it for `Cc1ccc(/C=C(/C#N)n2nnc3ncccc32)cc1` too.
Response: no (0)

Query: Now give it for `Cc1[nH]cnc1/C=C1\SC(N2CCCCC2)=NC1=O` too.
Response: no (0)

Query: Now give it for `COc1cc(/C=C/c2cc(/C=C/c3ccc(O)c(OC)c3)n(C(=O)c3ccc(Cl)cc3)n2)ccc1O` too.
Response: yes (1)

Query: Now give it for CCCCCCCCCCCCCCCCCC1=NC(C)(CO)CO1 (configuration not stated) too.
Response: no (0)

----------
# Test system: 786-0 renal
# assay_name: NCI-60 one-dose screen, 48 h (100 = growth as untreated, 0 = no growth, -100 = all killed)
# test_parameters: 10 µM unless noted
The panel holds about 83,000 compounds, 20% with a hit somewhere; the sample as a whole holds those more often.
Provide the reported growth of each item.
The response must be a number in % with no trailing unit.

Query: Give its growth value. Item: `Cc1ccc(N/N=C(/C(=O)c2ccc(Cl)cc2)c2nc(C)cc(=O)[nH]2)cc1`
Response: 82.9

Query: Now give it for `COc1cccc(/C=C2\Cc3ccccc3C2=O)c1` too.
Response: 101

Query: Now give it for CC(NC(=O)Oc1cccc2ccccc12)c1ccccc1 (centres undefined) too.
Response: 103

Query: Now give it for `COC(=O)c1cc2oc(/C=N\NC(=O)c3cc4oc(C)c(C)c4[nH]3)cc2[nH]1` too.
Response: 107

Query: Now give it for `Cc1sc2nc(NCc3ccccc3)[nH]c(=O)c2c1C` too.
Response: 67.2

Query: Now give it for `COc1cccc(CCN2C(=O)CCC3=C2CCC3=O)c1` too.
Response: 97.6

Query: Now give it for `C[C@@H]1C[C@@H]([C@@H](CC2CC(=O)NC(=O)C2)OC(=O)CC(=O)c2ccccc2)C(=O)[C@@H](C)C1` too.
Response: 1.2

Query: Now give it for Nc1c(C(=O)Nc2cccc(Cl)c2)sc2nc3c(cc12)C(O)CCC3 (centres undefined) too.
Response: 53.3

Query: Now give it for CCC(C)C1NC(=O)C(CCNCS(=O)(=O)O)NC(=O)C(NC(=O)C(CCNCS(=O)(=O)O)NC(=O)C(NC(=O)C(CCNCS(=O)(=O)O)NC(=O)CCCCC(C)C)C(C)O)CCNC(=O)C(C(C)O)NC(=O)C(CCNCS(=O)(=O)O)NC(=O)C(CCNCS(=O)(=O)O)NC(=O)C(C(C)CC)NC1=O (centres undefined) too.
Response: 93.1

----------
# Test system: IGROV1 ovarian
# assay_name: NCI-60 one-dose screen, 48 h (100 = growth as untreated, 0 = no growth, -100 = all killed)
# test_parameters: 10 µM unless noted
About 83,000 compounds went through this panel and 20% of them were active in at least one assay; those are over-represented in the sample as a whole.
attribute_measured: growth (%)
The response must be a number in % with no trailing unit.

Query: Give its growth value. Item: `O=C1/C(=C/c2ccc(F)cc2)Cc2ccccc21`
Response: 105

Query: Now give it for `O=C(O)CCC(=O)OC[C@@H](NC(=O)C(Cl)Cl)[C@H](O)c1ccc([N+](=O)[O-])cc1` too.
Response: 97.2

Query: Now give it for `COc1ccc2c3c(ccc2c1)C(=O)/C(=C\O)CC3` too.
Response: 111

Query: Now give it for `CCC(=O)Nc1cc2c(cc1Cl)-c1ccccc1C2` too.
Response: 86.4

Query: Now give it for CC1c2ccccc2-c2ccccc2N1C (stereo not given) too.
Response: 98.3

----------
# System: T-47D breast
# assay_name: NCI-60 one-dose screen, 48 h (100 = growth as untreated, 0 = no growth, -100 = all killed)
# test_parameters: 10 µM unless noted
About 83,000 compounds went through this panel and 20% of them were active in at least one assay; those are over-represented in the sample as a whole. The source made the active and inactive calls. Rule for the calls: active = growth percent below 10; inactive = the rest.
Provide the reported growth of each item.

Query: Give its growth value. Item: `Nc1ccc2c(c1Br)Cc1ccccc1-2`
Response: 87.8% (inactive)

Query: Now give it for `COc1cccc(/C=C2\Cc3ccccc3C2=O)c1` too.
Response: 100% (inactive)

Query: Now give it for `Cc1ccc(C2=Nc3c(ccc4c(C)c(C)c(=O)oc34)OC2)cc1` too.
Response: 89.8% (inactive)

Query: Now give it for `COc1cnc2c(c1)C(=O)c1c-2n(CCCNC2=NCCS2)c(=O)c2cc(F)ccc12` too.
Response: 19.1% (inactive)

Query: Now give it for `c1ccc(COc2ccc(Nc3ncnc4c3cnn4-c3ccccc3)cc2)cc1` too.
Response: 100% (inactive)

Query: Now give it for `N#Cc1c(-c2ccccc2)cc(-c2ccccc2)n(CCCCCCC(=O)O)c1=O` too.
Response: 91.1% (inactive)

Query: Now give it for `O=[N+]([O-])c1ccc(N=Nc2c(Cl)cc(O)cc2Cl)cc1` too.
Response: 4.24% (active)

Query: Now give it for `Cc1cc(C)nc(NS(=O)(=O)c2ccc(Nc3nc4nc(SCc5ccccc5)nc(-c5ccc(O)cc5)c4c(=O)[nH]3)cc2)n1` too.
Response: 79.1% (inactive)

Query: Now give it for `O=C(Nc1nc(-c2ccc(Cl)cc2)cs1)c1cc(-c2ccc(Br)cc2)nc2ccc(Cl)cc12` too.
Response: 53% (inactive)

Query: Now give it for `CCOC(=O)CCC(=O)O[C@H]1[C@H](O[C@@H]2[C@@H](C)[C@H](O[C@H]3C[C@@](C)(OC)[C@@H](O)[C@H](C)O3)[C@@H](C)C(=O)O[C@H](CC)[C@@](C)(O)[C@H](O)[C@@H](C)C(=O)[C@H](C)C[C@@]2(C)O)O[C@H](C)C[C@@H]1N(C)C` too.
Response: 97.1% (inactive)

Query: Now give it for `O=C(/C=C/c1c(-c2ccccc2)[nH]c2ccccc12)S(=O)(=O)c1ccccc1` too.
Response: 29.4% (inactive)

Query: Now give it for `CCOc1cc(CCNS(=O)(=O)c2ccc(C)cc2)c(C(C)=O)cc1OCC` too.
Response: 66% [100 µM] (inactive)

Query: Now give it for `O=c1c2ccccc2c2nccn2c2cc(Cl)ccc12` too.
Response: 84.6% (inactive)

Query: Now give it for `Cc1n(Cc2ccc3ccccc3c2)c2ccccc2[n+]1Cc1ccc2ccccc2c1` too.
Response: -3.2% (active)
